Hello, the source for this data is PubChem BioAssay (NCI), in case you need it.

Test system: HT29 colon
assay.notes: NCI-60 one-dose screen, 48 h (100 = growth as untreated, 0 = no growth, -100 = all killed)
measurement.parameters: 10 µM unless noted
Compounds without any hit were thinned out: in the full panel of roughly 83,000, 20% have a hit.
measured.parameter: growth (%)

O=C(N=Nc1c(O)[nH]c2ccccc12)Nc1ccc(Cl)cc1 ... 93.5
CC[C@@H](c1ccc2cc(OC)ccc2c1)C(C)(C)C(=O)F ... 118
CCCCCCCCn1ccc2cc(NC(=O)Cn3cc(CN4CCOCC4)nn3)ccc21 ... 108
Nc1c(C(=O)Nc2cccc3ncccc23)sc2nc3c(cc12)C(=O)CCC3 ... 35.9
C/C(=N\O)C(=O)NCCCCCC(=O)Nc1ccccc1 ... 104
COc1ccc2[nH]cc(-c3nc(-c4cn(C)c5ccncc45)cs3)c2c1 ... -33.6
Cc1cc2nc3c4ccccc4n(CCN(C)C)c3nc2cc1C ... 8.23
N#Cc1c(-c2ccccc2)c(C#N)c2c(C#N)c(N)nn2c1N ... 8.55
Cc1ncc(C(=O)Nc2ccc(CN3CCN(C)CC3)c(C(F)(F)F)c2)cc1C#Cc1cnc(N)c2ccncc12 ... -44.8
CC(C)c1ccc(NC(=O)Nc2ccc(NC(=O)c3ccccc3N)cc2)cc1 ... 26.5
COC1=CC(c2ccc[nH]2)=N/C1=C\c1[nH]c(C)c(CC(=O)OCc2ccccc2)c1C ... 4.42
N=C(N)c1ccc(-c2ccc(-c3ccc(Cl)cc3Cl)s2)cc1F ... -29.4
O=C(/C=C/c1cccc(Cl)c1)c1cccc(OCCCCOc2cccc(C(=O)/C=C/c3cccc(Cl)c3)c2)c1 ... 76.1
C(/C=C/c1ccccc1)=Nc1ccc(CCc2ccc(N=C/C=C/c3ccccc3)cc2)cc1 ... 36.4
COc1ccc(/C(C)=C(\c2ccc(OCCN3CCCCCC3)cc2)c2ccc(OC(=O)c3ccccc3)cc2)cc1 ... -3.62
CC/C(Cc1ccccc1)=C(\c1ccc(OCCN2CCCCCC2)cc1)c1ccc(OC(=O)NCc2ccccc2)cc1 ... 5.23
COc1ccc(C2=NN(C(=O)c3cc(OC)c(OC)c(OC)c3)C(c3ccc(N(C)C)cc3)C2)cc1 (stereo not given) ... 19.1
O=C(NCc1ccc2c(c1)OCO2)NCC1CCCC(CNC(=O)NCc2ccc3c(c2)OCO3)C1 (stereo not given) ... 110
O=C1NC(=O)c2c1c1c3ccccc3[nH]c1c1oc3ccc(F)cc3c21 ... 81.9
CC(O)c1ncc(/C=C2\SC(=S)N(Cc3ccccc3)C2=O)s1 (stereo not given) ... 59.4
